Documented Selectivity Assay C/Assay A across a set of compounds
Target: UniProt:P00742
Assay: Assay C: human Factor Xa chromogenic substrate assay
Type: biochemical
Conditions: ratio IC50 Factor Xa / IC50 IDO1

CC1CCC(C)N1c1ccc(NC(=O)C(C)(C)NC(=O)c2ccc(Cl)s2)cc1 (centres unmarked): 0.37
CC(C)(NC(=O)c1ccc(Br)s1)C(=O)Nc1ccc(N2CCOCC2=O)c(Cl)c1: 0.11
CC(C)(NC(=O)c1ccc(Cl)s1)C(=O)Nc1ccc2c(c1)CCN(C(=O)C(F)(F)F)CC2: >175
CC(C)(NC(=O)c1ccc(Cl)s1)C(=O)Nc1ncc2c(n1)CCN(Cc1ccccc1)CC2: >13
C#Cc1ccc(C(=O)NC(C)(C(=O)Nc2ccc(N3CCOCC3=O)c(C)c2)C(F)(F)F)s1 (centres unmarked): 0.08
CC(C)(NC(=O)c1ccc(Cl)s1)C(=O)Nc1ccc(Br)cc1: >42
CC(=O)N1CCc2ccc(NC(=O)C(C)(C)NC(=O)c3ccc(Cl)s3)cc2CC1: >164

With those in mind, consider the next compound.
Please report the measured Selectivity Assay C/Assay A for `CC(C)(NC(=O)c1ccc(Cl)s1)C(=O)Nc1ccc(Cl)cc1`
>57

====

Biological target: human Factor Xa (Homo sapiens (Human), UniProt P00742)
Sequence (P00742 235-488): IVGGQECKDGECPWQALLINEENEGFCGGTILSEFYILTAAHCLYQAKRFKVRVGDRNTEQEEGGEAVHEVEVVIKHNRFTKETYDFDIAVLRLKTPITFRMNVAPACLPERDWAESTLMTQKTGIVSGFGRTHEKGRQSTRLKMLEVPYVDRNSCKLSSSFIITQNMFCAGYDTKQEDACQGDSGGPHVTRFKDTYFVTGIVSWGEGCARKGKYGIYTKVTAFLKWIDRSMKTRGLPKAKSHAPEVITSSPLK
Sequence (P00742 41-179 partner): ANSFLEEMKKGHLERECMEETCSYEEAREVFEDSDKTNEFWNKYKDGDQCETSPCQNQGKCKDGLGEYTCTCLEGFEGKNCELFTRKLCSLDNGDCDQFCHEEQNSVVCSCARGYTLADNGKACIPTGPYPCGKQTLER
Assay: Assay C: human Factor Xa chromogenic substrate assay
Assay type: biochemical
Settings: ratio IC50 Factor Xa / IC50 IDO1
Protocol: Assay C. In Vitro Testing of Human Factor Xa Potency: Measurement of active human Factor Xa using a specific chromogenic substrate which is labeled with a p-nitro-anilino group (pNA). The cleavage in between the binding of the peptide substrate and the pNA-group is followed by a color change, which can be detected at 405 nm. […] The data were analyzed with the curve fitting model: log (inhibitor) vs. response—Variable slope (four parameters) […]
measurement.type: Selectivity Assay C/Assay A

Consider the worked cases shown below.
CC(C)(NC(=O)c1ccc(Br)s1)C(=O)Nc1ccc(Cl)c(F)c1 [Example 1]: >57
CC(C)(NC(=O)c1ccc(Cl)s1)C(=O)Nc1ccc(Cl)c(F)c1 [Example 3]: >55

With those in mind, consider the next compound.
Please report the measured Selectivity Assay C/Assay A for CC(C)(NC(=O)c1ccc(Br)s1)C(=O)Nc1ccc(Br)cc1 [Example 2]
>52

Each recorded value in this set is attributed to patent US11691960B2.
